- Test system: CHEK1;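 also: KINOMEscan kinase panel screen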
- MEASUREMENT SETUP: concentration: 1 μM,replicates: in singlicate; n = 1
Provide the reported %Inh of each item.
Please append the unit to your numeric answer.

See these solved cases before continuing.
{"columns": ["MOLECULE", "TARGET ENTITY", "READOUT", "RESULT"],
 "data": [
  ["CC(=O)Nc1nc2cnc(Nc3cc(NC(=O)c4cccc(CC(C)(C)C#N)c4)ccc3C)nc2s1", "CHEK1", "%Inh", "0%"],
  ["Cc1n[nH]c2cc(Nc3ccnc(Nc4cccc(CN5CCOCC5)c4)n3)ccc12", "CHEK1", "%Inh", "0%"],
  ["FC(F)(F)c1cc(Br)cc(Nc2nccc(-c3cnn4ncccc34)n2)c1", "CHEK1", "%Inh", "0%"]
]}

For every item below, please supply its %Inh.
1. CCn1c(-c2nonc2N)nc2cncc(Br)c21
2. COc1cc2ncn(-c3cc(OCC4CCCCC4)c(C(N)=O)s3)c2cc1OC
3. c1ccc(Oc2ccc(Nc3ccnc4ccc(-c5ccccn5)cc34)cc2)cc1
4. CN(c1ccccc1CNc1nc(Nc2ccc3c(c2)CC(=O)N3)ncc1C(F)(F)F)S(C)(=O)=O

0%
0%
26%
0%
